Source of measurements: ChEMBL document CHEMBL3232855

# STUDY SYSTEM: UniProt P43220
# ASSAY SUMMARY: Antagonist activity at human GLP-1R expressed in CHO cells assessed as inhibition of GLP-1-stimulated cAMP production preincubated for 30 mins followed by GLP-1 induction measured after 45 mins by LANCE assay
Listing of entries alongside the reported IC50.

• CC(CN1C(=O)C(c2cc(Cl)cc(Cl)c2)=N[C@]12CC[C@@H](C(C)(C)C)CC2)c1ccc(C(=O)NCCC(=O)O)cc1 (stereo not given in full) = 7.3 µM

Turning to the following molecule.
// IC50 lookup, key: C[C@H](NC(=O)c1ccc([C@@H](CCC(C)(C)C)N2C(=O)C(c3cc(Cl)cc(Cl)c3)=N[C@]23CC[C@@H](C(C)(C)C)CC3)cc1)c1nnn[nH]1
> 10 µM

----------
# STUDY SYSTEM: UniProt Q61606
# Sequence (Q61606 whole entry): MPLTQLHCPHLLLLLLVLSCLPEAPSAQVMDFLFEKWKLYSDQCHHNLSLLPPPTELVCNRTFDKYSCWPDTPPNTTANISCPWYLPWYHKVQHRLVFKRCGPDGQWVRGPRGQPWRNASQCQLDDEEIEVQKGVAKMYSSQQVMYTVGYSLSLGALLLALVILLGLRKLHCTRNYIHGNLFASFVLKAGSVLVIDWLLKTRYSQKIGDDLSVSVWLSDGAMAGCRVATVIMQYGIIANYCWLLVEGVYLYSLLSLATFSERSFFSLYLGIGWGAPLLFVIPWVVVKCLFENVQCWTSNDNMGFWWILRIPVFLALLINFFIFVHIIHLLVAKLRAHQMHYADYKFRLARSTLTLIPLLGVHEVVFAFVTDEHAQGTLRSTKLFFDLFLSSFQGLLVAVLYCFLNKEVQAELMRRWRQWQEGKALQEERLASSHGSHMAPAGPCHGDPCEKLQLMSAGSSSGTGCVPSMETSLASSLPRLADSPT
pIC50: −log10 of the molar value.
READOUT LABEL: pIC50

- CC(C)(C)CC[C@H](c1ccc(C(=O)NCc2nn[nH]n2)cc1)N1C(=O)C(c2cncc(Cl)c2)=N[C@]12CC[C@@H](C(C)(C)C)CC2: 7.08
- CC(C)C[C@H](c1ccc(C(=O)NCc2nn[nH]n2)cc1)N1C(=O)C(c2cc(Cl)cc(Cl)c2)=N[C@]12CC[C@@H](C(C)(C)C)CC2: 6.38
- CC(C)(C)CC[C@H](c1ccc(C(=O)NCc2nn[nH]n2)cc1)N1C(=O)C(c2cccc(F)c2)=N[C@]12CC[C@@H](C(C)(C)C)CC2: 7.00
- CC(C)(C)[C@H]1CC[C@]2(CC1)N=C(c1cccc(C(F)(F)F)c1)C(=O)N2Cc1ccc(C(=O)NCCC(=O)O)cc1: 5.00
- CC(C)(C)[C@H]1CC[C@]2(CC1)N=C(c1cc(Cl)cc(Cl)c1)C(=O)N2[C@H](CCC(F)(F)F)c1ccc(C(=O)NCc2nn[nH]n2)cc1: 6.96
- C[C@H](c1ccc(C(=O)NCCC(=O)O)cc1)N1C(=O)C(c2cccc(OC(F)(F)F)c2)=N[C@]12CC[C@@H](C(C)(C)C)CC2: 5.82

I. C[C@H](c1ccc(C(=O)NCCC(=O)O)cc1)N1C(=O)C(c2cccc(F)c2)=N[C@]12CC[C@@H](C(C)(C)C)CC2
II. CC(C)(C)CC[C@H](c1ccc(C(=O)NCc2nn[nH]n2)cc1)N1C(=O)C(c2ccc(C(F)(F)F)cc2)=N[C@]12CC[C@@H](C(C)(C)C)CC2
III. C[C@H](c1ccc(C(=O)NCc2nnn[nH]2)cc1)N1C(=O)C(c2cc(Cl)cc(Cl)c2)=N[C@]12CC[C@@H](C(C)(C)C)CC2
IV. CC(C)(C)[C@H]1CC[C@]2(CC1)N=C(c1cc(Cl)cc(Cl)c1)C(=O)N2[C@@H](c1ccc(C(=O)NCc2nn[nH]n2)cc1)C1CC1
Rank the items in ascending order with respect to pIC50. State the ranking by listing the labels in the requested order.
I, IV, III, II

P. CC(C)(C)CC[C@H](c1ccc(C(=O)NCc2nn[nH]n2)cc1)N1C(=O)C(c2ccc(F)cc2)=N[C@]12CC[C@@H](C(C)(C)C)CC2
Q. CC(C)CC[C@H](c1ccc(C(=O)NCc2nn[nH]n2)cc1)N1C(=O)C(c2cc(Cl)cc(Cl)c2)=N[C@]12CC[C@@H](C(C)(C)C)CC2
# query: argmin of pIC50 over P and Q Provide the label of your selected option as the answer.
Q
(Q: 6.55, P: 7.05)

----------
Listing of entries alongside the reported pIC50.
# STUDY SYSTEM: Glucagon-like peptide 1 receptor (Homo sapiens, UniProt P43220)
# Sequence (P43220 whole entry): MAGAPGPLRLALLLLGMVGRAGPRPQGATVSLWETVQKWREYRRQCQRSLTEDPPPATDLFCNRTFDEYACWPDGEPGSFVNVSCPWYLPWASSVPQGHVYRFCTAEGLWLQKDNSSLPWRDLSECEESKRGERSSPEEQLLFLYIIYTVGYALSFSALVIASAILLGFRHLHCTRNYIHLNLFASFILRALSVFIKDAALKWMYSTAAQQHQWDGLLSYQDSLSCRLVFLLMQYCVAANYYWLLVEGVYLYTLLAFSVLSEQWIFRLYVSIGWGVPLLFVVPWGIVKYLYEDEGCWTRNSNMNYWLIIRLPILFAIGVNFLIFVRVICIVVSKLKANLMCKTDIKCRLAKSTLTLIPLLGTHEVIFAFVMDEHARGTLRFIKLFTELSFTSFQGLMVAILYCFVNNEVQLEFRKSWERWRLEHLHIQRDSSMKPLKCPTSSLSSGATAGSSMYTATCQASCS
# ASSAY SUMMARY: Antagonist activity at human GLP-1R expressed in CHO cells assessed as inhibition of GLP-1-stimulated cAMP production preincubated for 30 mins followed by GLP-1 induction measured after 45 mins by LANCE assay
pIC50: −log10 of the molar value.

- CC(C)(C)[C@H]1CC[C@]2(CC1)N=C(c1cc(Cl)cc(Cl)c1)C(=O)N2CCc1ccc(C(=O)NCCC(=O)O)cc1: < 5.00
- CC(C)(C)CC[C@H](c1ccc(C(=O)NCc2nn[nH]n2)cc1)N1C(=O)C(c2cnccc2C(F)(F)F)=N[C@]12CC[C@@H](C(C)(C)C)CC2: < 5.00
- C[C@H](c1ccc(C(=O)NCCC(=O)O)cc1)N1C(=O)C(c2ccc(Cl)c(Cl)c2)=N[C@]12CC[C@@H](C(C)(C)C)CC2: 5.36
- CC[C@H](c1ccc(C(=O)NCc2nn[nH]n2)cc1)N1C(=O)C(c2cc(Cl)cc(Cl)c2)=N[C@]12CC[C@@H](C(C)(C)C)CC2: < 5.00
- C[C@H](c1ccc(C(=O)NCCC(=O)O)cc1)N1C(=O)C(c2ccc(F)cc2)=N[C@]12CC[C@@H](C(C)(C)C)CC2: 5.11
- CC(C)[C@H]1CC[C@]2(CC1)N=C(c1cc(Cl)cc(Cl)c1)C(=O)N2[C@H](CCC(C)(C)C)c1ccc(C(=O)NCc2nn[nH]n2)cc1: < 5.00
- CC(C)CC[C@H](c1ccc(C(=O)NCc2nn[nH]n2)cc1)N1C(=O)C(c2cc(Cl)cc(Cl)c2)=N[C@]12CC[C@@H](C(C)(C)C)CC2: < 5.00
- CC(C)(C)CC[C@H](c1ccc(C(=O)NCc2nn[nH]n2)cc1)N1C(=O)C(c2cccc(C(F)(F)F)c2)=N[C@]12CC[C@@H](C(C)(C)C)CC2: < 5.00
- CC[C@H]1CC[C@]2(CC1)N=C(c1cc(Cl)cc(Cl)c1)C(=O)N2[C@H](CCC(C)(C)C)c1ccc(C(=O)NCc2nn[nH]n2)cc1: < 5.00
- C[C@H](c1ccc(C(=O)NC[C@H](O)C(=O)O)cc1)N1C(=O)C(c2cc(Cl)cc(Cl)c2)=N[C@]12CC[C@@H](C(C)(C)C)CC2: < 5.00

// pIC50 lookup, key: C[C@H](c1ccc(C(=O)NCCC(=O)O)cc1)N1C(=O)C(c2ccccc2F)=N[C@]12CC[C@@H](C(C)(C)C)CC2
< 5.00

// pIC50 lookup, key: C[C@H](c1ccc(C(=O)NCCC(=O)O)cc1)N1C(=O)C(c2cc(Cl)ccc2F)=N[C@]12CC[C@@H](C(C)(C)C)CC2
< 5.00

// pIC50 lookup, key: C[C@@H](NC(=O)c1ccc([C@@H](CCC(C)(C)C)N2C(=O)C(c3cc(Cl)cc(Cl)c3)=N[C@]23CC[C@@H](C(C)(C)C)CC3)cc1)c1nnn[nH]1
< 5.00

----------
# STUDY SYSTEM: Glucagon receptor (Homo sapiens, UniProt P47871)
# Sequence (P47871 whole entry): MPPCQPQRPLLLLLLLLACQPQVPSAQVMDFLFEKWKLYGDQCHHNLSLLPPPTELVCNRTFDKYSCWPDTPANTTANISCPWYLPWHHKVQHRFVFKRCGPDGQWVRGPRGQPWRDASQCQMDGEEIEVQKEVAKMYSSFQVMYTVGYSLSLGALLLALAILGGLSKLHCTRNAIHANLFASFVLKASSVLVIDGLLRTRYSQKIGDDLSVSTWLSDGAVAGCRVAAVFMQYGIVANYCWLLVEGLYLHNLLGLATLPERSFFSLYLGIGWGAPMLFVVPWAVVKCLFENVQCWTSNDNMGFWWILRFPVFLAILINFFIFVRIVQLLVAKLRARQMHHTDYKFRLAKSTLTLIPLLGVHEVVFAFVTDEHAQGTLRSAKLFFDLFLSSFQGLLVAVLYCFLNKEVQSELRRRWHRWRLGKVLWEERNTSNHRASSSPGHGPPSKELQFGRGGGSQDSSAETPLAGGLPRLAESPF
# ASSAY SUMMARY: Antagonist activity at human GCGR expressed in CHO cells assessed as inhibition of glucagon-stimulated cAMP production preincubated for 30 mins followed by glucagon induction measured after 45 mins by LANCE assay
# Format: functional, cell-based
READOUT LABEL: IC50 (nM)

• CCC[C@H](c1ccc(C(=O)NCc2nn[nH]n2)cc1)N1C(=O)C(c2cc(Cl)cc(Cl)c2)=N[C@]12CC[C@@H](C(C)(C)C)CC2 = 220
• CC(C)(C)CC[C@H](c1ccc(C(=O)NCc2nn[nH]n2)cc1)N1C(=O)C(c2cc(Cl)cc(Cl)c2)=N[C@]12CC[C@@H](C)CC2 = 260
• C[C@H](c1ccc(C(=O)NCCC(=O)O)cc1)N1C(=O)C(c2ccc(Cl)c(Cl)c2)=N[C@]12CC[C@@H](C(C)(C)C)CC2 = 550
• C[C@H](c1ccc(C(=O)NCCC(=O)O)cc1)N1C(=O)C(c2cc(Cl)cc(Cl)c2)=N[C@]12CC[C@@H](C(C)(C)C)CC2 = 140

A. C[C@H](c1ccc(C(=O)NCc2nnn[nH]2)cc1)N1C(=O)C(c2cc(Cl)cc(Cl)c2)=N[C@]12CC[C@@H](C(C)(C)C)CC2
B. CC(C)(C)CC[C@H](c1ccc(C(=O)NCCCC(=O)O)cc1)N1C(=O)C(c2cc(Cl)cc(Cl)c2)=N[C@]12CC[C@@H](C(C)(C)C)CC2
C. CC(C)(C)[C@H]1CC[C@]2(CC1)N=C(c1ccc(Cl)cc1)C(=O)N2Cc1ccc(C(=O)NCCC(=O)O)cc1
Rank the items in ascending order with respect to IC50. State the ranking by listing the labels in the requested order.
A, B, C
(A: 180 nM, B: 350 nM, C: 1400 nM)

----------
# STUDY SYSTEM: UniProt P47871
# ASSAY SUMMARY: biochemical
# Type: cell-based, CHO
# Description: Displacement of [125I]-glucagon from recombinant human GCGR expressed in CHO cells after 60 mins by scintillation counting analysis
pIC50: −log10 of the molar value.
READOUT LABEL: pIC50

• CC(C)(C)CC[C@H](c1ccc(C(=O)NCc2nn[nH]n2)cc1)N1C(=O)C(c2cc(F)cc(Cl)c2)=N[C@]12CC[C@@H](C(C)(C)C)CC2 = 8.00
• C[C@H](c1ccc(C(=O)NCCC(=O)O)cc1)N1C(=O)C(c2ccc(F)cc2)=N[C@]12CC[C@@H](C(C)(C)C)CC2 = 7.07

a. C[C@H](c1ccc(C(=O)NCCC(=O)O)cc1)N1C(=O)C(c2ccccc2Cl)=N[C@]12CC[C@@H](C(C)(C)C)CC2
b. CC(C)(C)[C@H]1CC[C@]2(CC1)N=C(c1cc(Cl)cc(Cl)c1)C(=O)N2[C@@H](c1ccc(C(=O)NCc2nn[nH]n2)cc1)C1CC1
# query: argmin of pIC50 over a and b Provide the label of your selected option as the answer.
a
